Parameter VNA titer: see the listing below.
Biological target: HA of H7N3 A/NIBRG/60 (A/mallard/NL/12/00) (influenza A virus)
Experiment: cell-based or functional assay

Use the examples below as a reference point.
{"binder": "SD1018 (VHH) VHH: EVQLVESGGGLVQAGGSLRLSCAASGQTYHMGWFRQTPGNERESVAAVTWSGAVTRYADSVKGRFTISRDNAKNTVYLQMNSLVPEDTAIYYCAATRSMAPIIQLSPGSYDYWGPGTQVTVSS", "VNA titer": "> 1000 nM"}
{"binder": "SD1069 (VHH) VHH: EVQLVESGGGLVQAGDSLRLSCAASGPTFGMSAMGWFRQAPGKEREFVAAISGLGNPNYSDDVKGRFTISRENGRNTVYLQMNSLKPEDTAVYYCAQRKVYHVQGGDRPQAYDYWGQGTQVTVSS", "VNA titer": "> 1000 nM"}
{"binder": "SD1027 (VHH) VHH: EVQLVESGGGMVQAGGSLRLSCAASGGTFSLYHMGWFRQAPGEEREFVAAISGSGGNTYYADSVKGRFTISRDNNKNTVYLQMSSLEPEDTAVYFCAAMKWPGILRDANAYDYWGQGTQVTVSS", "VNA titer": "> 1000 nM"}

Turning now to a further record.
Consider the binder shown here: SD1070 (VHH) VHH: EVQLVESGGGLVQAGGSLRISCAASGRTFSIYSMGWFRQAPGKEREFVATIGWNSGRTFYADSMKERFTISADNARNTLYLQMNSLKFEDTAVYYCAAAKGPLRLSSQADYWGQGTQVTVSS What is its recorded VNA titer?
366 nM
